Target or system acetylcholinesterase (AChE) (Homo sapiens); recorded quantity pIC50.
API: returns pIC50 as number; meaning -log10 of concentration in mol/L.

{"Mol": "O=[N+]([O-])c1ccc(-c2nnc(SC/C(=N/NC(=S)Nc3ccccc3)c3ccc(Cl)c(Cl)c3)[nH]2)cc1", "pIC50": 5.60}
{"Mol": "Cc1ccc(-c2ccc(NC(=S)N/N=C(/CSc3nnc(-c4ccc([N+](=O)[O-])cc4)[nH]3)c3ccc(Br)cc3)cc2)cc1", "pIC50": 4.91}
{"Mol": "COc1ccc(OC)c(/C(CSc2nnc(-c3ccc([N+](=O)[O-])cc3)[nH]2)=N\\NC(=S)Nc2ccc(C)cc2[N+](=O)[O-])c1", "pIC50": 5.62}
{"Mol": "O=[N+]([O-])c1ccc(-c2nnc(SC/C(=N/NC(=S)Nc3cc(Cl)c(Cl)cc3[N+](=O)[O-])c3ccccc3Br)[nH]2)cc1", "pIC50": 5.66}

Lookup: Report pIC50, nothing else, for this compound: `Cc1ccc(-c2ccc(NC(=S)N/N=C(/CSc3nnc(-c4ccc([N+](=O)[O-])cc4)[nH]3)c3ccc(Cl)c(Cl)c3)cc2)cc1`
Found: 5.49

Lookup: Check the records and state pIC50 for `COc1ccc(OC)c(/C(CSc2nnc(-c3ccc([N+](=O)[O-])cc3)[nH]2)=N\NC(=S)Nc2ccc([N+](=O)[O-])cc2)c1`
Found: 5.68

Lookup: Look up pIC50 of `COc1cccc(/C(CSc2nnc(-c3ccc([N+](=O)[O-])cc3)[nH]2)=N\NC(=S)Nc2ccc([N+](=O)[O-])cc2)c1` and report it.
Found: 5.54

Lookup: Please list pIC50 recorded for the compound `O=[N+]([O-])c1ccc(-c2nnc(SC/C(=N/NC(=S)Nc3cccc([N+](=O)[O-])c3)c3ccc(-c4ccccc4)cc3)[nH]2)cc1`
Found: 5.33

Lookup: Specify pIC50 for `COc1cccc(/C(CSc2nnc(-c3ccc([N+](=O)[O-])cc3)[nH]2)=N\NC(=S)Nc2ccc(C)cc2[N+](=O)[O-])c1` and stop.
Found: 5.72

Lookup: Please look at this compound and report its pIC50: `Cc1ccc(NC(=S)N/N=C(/CSc2nnc(-c3ccc([N+](=O)[O-])cc3)[nH]2)c2ccc(Cl)c(Cl)c2)c([N+](=O)[O-])c1`
Found: 5.57

---

- Target under test: acetylcholinesterase (AChE) (Homo sapiens, UniProt P22303)
- Sequence (P22303 32-614, species assumed): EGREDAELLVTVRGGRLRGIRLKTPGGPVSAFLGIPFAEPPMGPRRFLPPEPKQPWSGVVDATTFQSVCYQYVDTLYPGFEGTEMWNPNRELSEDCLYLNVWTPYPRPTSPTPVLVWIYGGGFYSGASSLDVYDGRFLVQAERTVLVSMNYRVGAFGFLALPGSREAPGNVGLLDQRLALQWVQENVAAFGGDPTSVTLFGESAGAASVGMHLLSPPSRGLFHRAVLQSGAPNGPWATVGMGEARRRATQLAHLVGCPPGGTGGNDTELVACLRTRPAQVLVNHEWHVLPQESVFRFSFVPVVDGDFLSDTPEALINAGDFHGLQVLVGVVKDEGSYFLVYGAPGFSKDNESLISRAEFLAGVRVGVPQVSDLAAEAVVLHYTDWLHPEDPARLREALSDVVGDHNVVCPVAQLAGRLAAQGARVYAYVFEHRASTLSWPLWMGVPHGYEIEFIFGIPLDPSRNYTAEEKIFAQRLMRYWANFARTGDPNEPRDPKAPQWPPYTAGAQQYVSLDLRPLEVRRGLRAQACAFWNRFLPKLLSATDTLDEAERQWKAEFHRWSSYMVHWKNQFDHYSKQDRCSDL
- Format: biochemical
compounds and their reported Selectivity Index
Please state the value as a number alone, without comment.

{"Compound": "COc1ccc(OC)c(/C(CSc2nnc(-c3ccc([N+](=O)[O-])cc3)[nH]2)=N\\NC(=S)Nc2ccc([N+](=O)[O-])cc2)c1 [6g]", "Selectivity Index": 2.04}

Lookup: Tell me its Selectivity Index given Cc1ccc(NC(=S)N/N=C(/CSc2nnc(-c3ccc([N+](=O)[O-])cc3)[nH]2)c2ccc(Cl)c(Cl)c2)c([N+](=O)[O-])c1 [6m] as the entry.
Found: 1.41

Lookup: Specify Selectivity Index for Cc1ccc(/C(CSc2nnc(-c3ccc([N+](=O)[O-])cc3)[nH]2)=N\NC(=S)Nc2cc(Cl)c(Cl)cc2[N+](=O)[O-])c([N+](=O)[O-])c1 [6l] and stop.
Found: 1.28

Lookup: For Cc1ccc(NC(=S)N/N=C(/CSc2nnc(-c3ccc([N+](=O)[O-])cc3)[nH]2)c2ccccc2[N+](=O)[O-])c([N+](=O)[O-])c1 [6r] , write its Selectivity Index.
Found: 1.69

Lookup: State its Selectivity Index: O=[N+]([O-])c1ccc(-c2nnc(SC/C(=N/NC(=S)Nc3ccccc3)c3ccc(Cl)c(Cl)c3)[nH]2)cc1 [6o]
Found: 1.24

Lookup: Let me know recorded Selectivity Index for Cc1ccc(-c2ccc(NC(=S)N/N=C(/CSc3nnc(-c4ccc([N+](=O)[O-])cc4)[nH]3)c3ccc(Cl)c(Cl)c3)cc2)cc1 [6p] , thanks.
Found: 1.44
